# assay name: Toxicity liver stage against HepG2, at 10uM
# Type: cell-based
# Set-up: test concentration 10 uM, cell line HepG2-A16-CD81EGFP
# condition: human, HepG2-A16-CD81EGFP cells; read-out: INHIBITION

compound	cytotoxicity at 10 µM [%]
CC(C)CCN1C[C@@H]2C[C@H](C(=O)NCC(C)C)[C@H](C1)O2	5.9
CNc1nc(CNC(=O)Nc2ccccc2OC(C)C)cs1	-12.1
Cc1ncsc1CN(C)C(=O)CC1CCOc2ccccc21 (stereo unspecified)	20.2
Cc1nnc(NC(=O)NC2CCOc3ccccc32)s1 (stereo unspecified)	-13.4
CCCOC(=O)N1CCCC2(CCN(Cc3cccc(C#N)c3)C2)C1 (stereo unspecified)	-4.59
Cc1csc(CN2CC[C@H]3C[C@H](c4ccncn4)O[C@@H]3C2)n1	-148
O=C(C1=CCCC1)N1C[C@H]2CCC[C@@]2(COCc2ccncc2)C1	2.78
CN1C(=O)C2(CC(=O)Nc3[nH]ncc32)c2cc(Cl)ccc21 (stereo unspecified)	-1.89
Cc1nc(C)n(CC2CCCN2Cc2nc(-c3ccccn3)no2)n1 (stereo unspecified)	-9.48
COc1cccc(OCCn2c(C)c(C)oc2=O)c1	-7.12
Cc1ccc(=O)n(CC(=O)N2CCCC(c3nc(C)c(C)s3)C2)n1 (stereo unspecified)	-3.06

###

# assay name: Toxicity liver stage against HepG2, at 10uM
# Assay type: cell-based
# Design: test concentration 10 uM, cell line HepG2-A16-CD81EGFP
# condition: human, HepG2-A16-CD81EGFP cells; read-out: INHIBITION
# cytotoxicity at 10 µM per record follows
experimental endpoint: cytotoxicity at 10 µM (%)

compound	quantitative result
O=C(c1ccc(OCC2CC2)cc1)N1CCOCC1c1ncon1 (stereo not drawn)	1.79
CC(C)CNC(=O)NC(=O)C(C)Nc1cccc(CN2CCOC2=O)c1 (stereo not drawn)	-3.37
Cc1cc(C(=O)N2CCN(c3nc4c(C(C)C)cccc4s3)CC2)no1	16.7
O=C(c1cccnn1)N1C[C@@H]2CC[C@H](Oc3cccc(F)c3)[C@@H]2C1	-13.6
O=C(CCc1cccs1)N1CCC(Nc2cccnn2)CC1	-10.5
C=C(C)CN1CCN(Cc2nccn2C)C(C)C1 (stereo not drawn)	-14.6
CN(C)CCN(CC1CCCO1)C(=O)Cc1cn2ccccc2n1 (stereo not drawn)	-2.96
Cc1cc(N2CCC(n3cc(CN4CCSCC4)nn3)CC2)ccn1	-12.5
CNC(=O)c1cccc(CNC(C)c2ccc(F)cc2N(C)C)c1 (stereo not drawn)	0.508
Cc1cc(NC(=O)CN2CCc3c(nc(C(C)C)n3C)C2)n(C)n1	-4.94
OC(CN(Cc1ccccc1)Cc1ccncc1)c1ccco1 (stereo not drawn)	24.7
CCOc1c(Br)cc(CNC(C)c2nnc3n2CCC3)cc1OC (stereo not drawn)	-40.9
COCCN1CCCC(c2nccnc2-c2cccc(Cl)c2)C1 (stereo not drawn)	3.99
CC1CCCN(c2ccccc2OCC(=O)NC2CCOCC2)C1 (stereo not drawn)	-23.5
CC(Cn1cccn1)NCc1nc(-c2cccs2)no1 (stereo not drawn)	-8.7
Cc1nccc(N2CCCC2CCNS(C)(=O)=O)n1 (stereo not drawn)	0.146
CCN(CC)S(=O)(=O)CC(=O)N1CCc2ccc(F)cc21	-4.73
Cn1cnc2cc(CCC(=O)Nc3n[nH]c(C4CC4)n3)ccc21	5.21
N#Cc1cccc(CNCCNC(=O)Cc2cccc(F)c2)c1	3.7
c1ccc(NCc2ccc(Cn3ccnc3)cc2)nc1	70.9
CC(C)c1nccn1Cc1cc(C(=O)NCC(F)(F)F)n[nH]1	3.73
Cc1ccc(C(CNC(=O)c2cc(=O)c3ccccc3[nH]2)N(C)C)cc1 (stereo not drawn)	-14.6
O=C(CN1CCOC(Cn2cccn2)C1)NCc1cccs1 (stereo not drawn)	-6.88
COc1nccc(N2CC[C@@H](N3CCCCCC3)[C@H](O)C2)c1C#N	-152
O=C(c1ccc(C(F)(F)F)nc1)N1CCCC(n2cncn2)C1 (stereo not drawn)	-10.6
Cc1nc(C(C)Nc2nc3c(s2)c(C)nn3C)n[nH]1 (stereo not drawn)	10.2
O=C(CCn1cccn1)N1CC[C@@H](c2ccc3ccccc3c2)[C@H](O)C1	2.03
Cc1noc2nc(C3CC3)c(Cl)c(C(=O)O)c12	-1.25
COCC(=O)Nc1ccc([C@@H](O)[C@H]2COCC(=O)N2C)cc1	10.3
O=C(c1cccnc1)N1CCC[C@]2(C[C@H](Oc3ncccc3F)CO2)C1	0.37
CC(Cn1cncn1)Nc1ccc(-c2nccn2C)nn1 (stereo not drawn)	-3.73
Cc1nc(C2CCCNC2)cc(N(C)CCc2cn[nH]c2)n1 (stereo not drawn)	-9.91
O=C(Cn1cc(I)cn1)N1CCOCC1	-10.2
CC(C)OCc1ncn2c1CN(Cc1nccs1)CCC2	-83.6
COC[C@@]12CCC[C@@H]1CN(C(=O)Cc1ccccn1)C2	-96.7
Cc1nnc(NC(=O)NC(C)Cn2cccn2)s1 (stereo not drawn)	6.62
O=C(Cn1ccnc1)N1C[C@@H]2CC[C@H](Oc3ccccc3Cl)[C@@H]2C1	11.9
CN(C(=O)COc1ccc(F)cc1)[C@@H]1CS(=O)(=O)C[C@H]1O	-2.62
CC(C)CCN1Cc2c(C(=O)O)ncn2-c2ccccc2S1(=O)=O	6.72
CSc1ccccc1C(=O)C1CCCN(Cc2cc(C(C)C)[nH]n2)C1 (stereo not drawn)	-4.01
COCC1CN(S(=O)(=O)Cc2ccc(C)cc2)Cc2c1cnn2C (stereo not drawn)	3.51
CC(C)(Oc1ccc2c(c1)CCCC2=O)C(=O)NCc1ccco1	-2.74
Clc1ccccc1-c1cc(CNc2ncnc3c2CCNCC3)no1	24.6
COc1ccc(CN(Cc2cnc(N)nc2)CC2CCCO2)c(OC)c1 (stereo not drawn)	-0.438
Cc1n[nH]c2c1C(c1ccsc1)SCC(=O)N2 (stereo not drawn)	4.21
Cc1cc(N2CCC(N(C)C(=O)c3ccccc3F)CC2)nc(C)n1	25.5
Cc1cc(CCC(=O)NCc2nccn2C)ccc1Br	2.95
COc1ncccc1CNC(=O)c1cccc(C)n1	-1.58

###

# assay name: Toxicity liver stage against HepG2, at 10uM
# Format: cell-based
# Design: test concentration 10 uM, cell line HepG2-A16-CD81EGFP
# condition: human, HepG2-A16-CD81EGFP cells; read-out: INHIBITION

compound	reading unit	cytotoxicity at 10 µM
O=c1ccc2c(n1CCN1CCCC1)CCN(c1ncccn1)CC2	%	8.33
Clc1ccccc1C1(c2ccnc(-c3ccncc3)n2)CCNCC1	%	-8.16
COc1ncc(C)cc1NC(=O)CCc1ccccn1	%	-9.58
c1cncc(CN2CCn3c(Cn4cncn4)cnc3C2)c1	%	-70.9
Cc1nnc(C(C)Nc2cccc(COCCc3ccccc3)c2)o1 (configuration not stated)	%	-3.51
Nc1nc(C2CCN(C(=O)c3cnccn3)CC2)cs1	%	-7.33
Cn1cc(C[C@H]2[C@H](N3CCOCC3)CCN2C(=O)c2ccc[nH]2)cn1	%	-75
CCc1csc(NC(=O)Nc2c(C)n[nH]c2C)n1	%	-3.41
Cc1cccnc1NC(=O)C1CCCN(c2cccc(C(F)(F)F)n2)C1 (configuration not stated)	%	4.95
CN1CCN(C(=O)N2C[C@@H]3CC[C@H]2CN(Cc2ccccc2)C3)CC1	%	-7.71
CC(=O)N1CCC(N[C@@H]2CO[C@H](CNC(=O)c3cccs3)[C@H]2O)CC1	%	1.96
CCn1ncc2c1CCCC2NCc1ccc(OC)c(C)c1 (configuration not stated)	%	-8
CN(C)S(=O)(=O)NCc1cccnc1Oc1ccccc1	%	1.6
CCC1=N[C@@]2(CC[C@@H]3CN(C(=O)Nc4ccc(F)cc4)C[C@@H]32)C(=O)N1	%	-24
CC(C)(CO)Nc1c(NCc2ccccn2)c(=O)c1=O	%	0.122
CCOc1nnc(CN(CC)CC(=O)Nc2c(F)cccc2F)s1	%	-2.62
CCC[C@@H]1CN(C(=O)c2ccccc2C(C)=O)C[C@H]1N(C)C	%	-0.254
Cc1nc(C)n(CC2CCCN2CCOc2cccc(F)c2)n1 (configuration not stated)	%	-0.945
O=C(NCc1ccoc1)NC1CCN(c2ncccn2)CC1	%	6.36
O=C(NCCc1ccsc1)c1ccoc1	%	-3.3
COc1ccc(CN2CCO[C@H]3[C@H](OCCN4CCCC4)CC[C@@H]32)cc1	%	0.471
CC(C(=O)NCc1ccnc(N2CCCCCC2)c1)n1cccn1 (configuration not stated)	%	-15.8
COc1ccc(CNCC(O)c2cccc(O)c2)cc1Br (configuration not stated)	%	-3.86
COCC(c1cccc(C(F)(F)F)c1)N(C)C(=O)c1ccco1 (configuration not stated)	%	-9.07
O=C(Cc1ccc2c(c1)OCCCO2)Nc1nnn[nH]1	%	-4.66
O=C(Cc1cccc(F)c1)NCCNCc1cccc(O)c1	%	-9.5
COC(=O)CN1CCCN(C(=O)CCOc2cccc(C)c2C)CC1	%	-1.73
O=S(=O)(c1cccs1)N1CCN2C[C@H](OCC3CC3)C[C@H]2C1	%	11.9
CCN1CCN(C(=O)c2ccc3c(c2)CCCN3)[C@H]2CS(=O)(=O)C[C@H]21	%	-57.8
CC(C(=O)NCC1(c2c(F)cccc2F)CCCC1)S(C)(=O)=O (configuration not stated)	%	8.14
O=C(O)C1(Oc2ccc3c(c2)OCO3)CCN(C2CCOCC2)CC1	%	-13.3
CCc1cc(N[C@@H]2CC[C@@H](N)C2)n2nc(C)c(C)c2n1	%	2.2
O=C(NCC(Cc1cccc(F)c1)N1CCCC1=O)C1CCCC1 (configuration not stated)	%	1.39
CN(C)Cc1cccc(C(=O)N2CCCC(n3cncn3)C2)c1 (configuration not stated)	%	-5.87
O=C(CCOc1ccccc1)N1CCCC(n2cncn2)C1 (configuration not stated)	%	-2.95
CN(C)CC1CN(C(=O)Cc2ccccc2)Cc2nccn2C1 (configuration not stated)	%	-115
CCc1noc(C)c1C(=O)N1CCN(c2nc(C)cc(OC)n2)CC1	%	-13.8
CN(C)C(=O)N1CCN(C(=O)Nc2nc(-c3ccccc3)ns2)CC1	%	-136
N#Cc1cc(F)c(N2CCC(NS(=O)(=O)c3cccs3)CC2)c(F)c1	%	8.76
COCCN1CCN(Cc2cnc(C3(C)CCCCO3)nc2)CC1 (configuration not stated)	%	1.16
O=C(N[C@@H]1CCC[C@@H](N2CCOCC2)[C@@H]1O)c1cnn2cccnc12	%	-21.9
COCc1ncn2c1CN(S(=O)(=O)c1cccs1)CCC2	%	6.82
CN(Cc1csc(-c2ccccc2)n1)C(=O)CCNS(C)(=O)=O	%	0.571
CC(C)N1CCN(S(=O)(=O)c2ncn(C)c2Cl)CC1	%	13.9
N#Cc1ccsc1N1CCC(Sc2ccncc2)C1=O (configuration not stated)	%	-15.7
CCn1cc(-c2nn3c(C(C)C)nnc3s2)c(C)n1	%	-14.6
COCC(=O)NC1CC2(CCN(CCN(C)C)CC2)c2ccccc21 (configuration not stated)	%	-113
